Biological target: T1, cynomolgus FGFR3b expressed with a C-terminal myc-myc-hexahistidine tag (mfFGFR3b.mmH) (cynomolgus)
T1 construct: also called REGN3521; mf FGFR3b ecto (R357G)(E23-G377;R357G).mmH
T1 chain: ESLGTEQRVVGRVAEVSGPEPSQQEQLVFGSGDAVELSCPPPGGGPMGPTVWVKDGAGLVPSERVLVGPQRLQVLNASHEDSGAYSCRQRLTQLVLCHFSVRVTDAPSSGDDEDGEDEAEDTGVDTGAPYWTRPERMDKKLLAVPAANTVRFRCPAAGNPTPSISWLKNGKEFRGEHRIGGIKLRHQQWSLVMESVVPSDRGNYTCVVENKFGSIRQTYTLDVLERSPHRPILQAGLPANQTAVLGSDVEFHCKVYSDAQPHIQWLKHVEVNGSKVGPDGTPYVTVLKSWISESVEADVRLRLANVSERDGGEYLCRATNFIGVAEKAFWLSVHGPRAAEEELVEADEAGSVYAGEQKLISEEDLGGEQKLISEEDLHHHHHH
Assay: SPR Biacore, mAb captured on anti-hFc, 25C
Protocol: The CM5 Biacore sensor surface was derivatized by amine coupling with a monoclonal mouse anti-human Fc monoclonal antibody (REGN2567). […] Antibody-reagent association was monitored for 5 minutes while dissociation in HBS-EP running buffer was monitored for 10 minutes. At the end of each cycle, the anti-FGFR3 antibody capture surface was regenerated using a 10 sec injection of 20 mM phosphoric acid. All binding kinetics experiments were performed at 25° C. […]
Listed next: entries and their corresponding kon.
Attribute measured: kon (M⁻¹ s⁻¹)

H4H30063P (antibody, human IgG4 S228P, kappa, V domains shown, HCVR 2, LCVR 10; also called REGN15684) VH: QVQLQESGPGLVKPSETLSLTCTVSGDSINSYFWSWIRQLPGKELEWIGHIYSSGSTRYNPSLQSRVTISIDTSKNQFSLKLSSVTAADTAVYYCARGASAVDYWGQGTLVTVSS VL: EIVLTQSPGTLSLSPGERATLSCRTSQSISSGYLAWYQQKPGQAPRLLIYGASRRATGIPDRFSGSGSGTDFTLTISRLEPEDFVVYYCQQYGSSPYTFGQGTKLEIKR; 153000
H4H30071P (antibody, human IgG4 S228P, kappa, V domains shown, HCVR 42, LCVR 50) VH: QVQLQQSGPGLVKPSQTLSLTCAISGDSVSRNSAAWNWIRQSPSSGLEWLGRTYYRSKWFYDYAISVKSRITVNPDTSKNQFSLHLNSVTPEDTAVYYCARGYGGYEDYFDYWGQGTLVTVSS VL: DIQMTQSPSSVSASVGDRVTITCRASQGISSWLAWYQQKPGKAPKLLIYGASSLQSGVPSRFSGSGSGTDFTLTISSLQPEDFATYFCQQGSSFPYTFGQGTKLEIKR; 180000
H4H30061P (antibody, human IgG4 S228P, kappa, V domains shown) VH: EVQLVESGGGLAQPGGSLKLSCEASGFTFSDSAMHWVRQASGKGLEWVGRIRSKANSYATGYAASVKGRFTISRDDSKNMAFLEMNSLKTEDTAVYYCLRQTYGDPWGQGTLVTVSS VL: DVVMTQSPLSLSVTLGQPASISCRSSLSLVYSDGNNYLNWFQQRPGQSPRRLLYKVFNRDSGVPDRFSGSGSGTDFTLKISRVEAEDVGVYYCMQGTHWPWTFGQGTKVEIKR; 151000
H4H30076P (antibody, human IgG4 S228P, kappa, V domains shown) VH: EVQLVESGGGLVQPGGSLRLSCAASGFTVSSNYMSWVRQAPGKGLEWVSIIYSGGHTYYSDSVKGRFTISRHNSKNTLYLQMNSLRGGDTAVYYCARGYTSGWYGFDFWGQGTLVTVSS VL: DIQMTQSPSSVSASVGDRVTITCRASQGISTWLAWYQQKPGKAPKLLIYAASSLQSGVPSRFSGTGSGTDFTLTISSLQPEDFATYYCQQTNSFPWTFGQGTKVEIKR; 200000
